- experiment-summary: parallel artificial membrane permeability assay (PAMPA), at Pharmaron
- Type: in vitro ADME
- experimental-context: Pe in cm s^−1, lower value is more permeable, read-out: −log[Pe (cm s^−1)] (converted)
# Papp annotations
Report the figure in ×10⁻⁶ cm/s without appending any unit label.

Reference set (3 entries):
compound: C=CC(=O)NCC(=O)N1CCN(C(=O)C23CC4CC(CC(C4)C2)C3)CC1 [EB-2-16, reference compound]
Papp / ×10⁻⁶ cm/s: 1.55

compound: C=CC(=O)NCC(=O)N1CCN(C(=O)C23CC4CC(CC(I)(C4)C2)C3)CC1
Papp / ×10⁻⁶ cm/s: 5.25

compound: C=CC(=O)NCC(=O)N1CCN(C(=O)C23CC4CC(C2)CC(c2ccccc2)(C4)C3)CC1 [Compound 25d]
Papp / ×10⁻⁶ cm/s: 13.2

Papp reading for C=CC(=O)NCC(=O)N1CCN(C(=O)C23CC4CC(CC(Br)(C4)C2)C3)CC1 [Compound 25c] : 2.19

----------
- target-desc: tissue transglutaminase (TG2), C-terminal His-tag TG2 (Homo sapiens, UniProt P21980)
- Construct: host or cells: Novagen Rosetta 2 (DE3) E. coli
- experiment-summary: continuous AL5 hydrolysis assay of irreversible TG2 inhibition (kobs vs [I]/α)
- Type: biochemical
- experimental-context: irreversible inhibition, AL5 100 μM, pH 6.9, 25 °C, triplicate
measure: KI (inactivation) (µM)
Report the figure in µM without appending any unit label.

KI (inactivation) reading for C=CC(=O)NCC(=O)N1CCN(C(=O)c2ccccc2-c2cccc(C)c2)CC1 [Compound 21b] : 2.6

KI (inactivation) reading for C=CC(=O)NCC(=O)N1CCN(C(=O)c2ccccc2-c2ccc(C)cc2)CC1 [Compound 21c] : 8.3

KI (inactivation) reading for C=CC(=O)NCC(=O)N1CCN(C(=O)C2CCCCC2)CC1 [Compound 6d] : 7.1

KI (inactivation) reading for C=CC(=O)NCC(=O)N1CCN(C(=O)C2CC2)CC1 [Compound 6a] : 23.5

KI (inactivation) reading for C=CC(=O)NCC(=O)N1CCN(C(=O)c2cccc(-c3ccccc3C)c2)CC1 [Compound 21d] : 1.1

KI (inactivation) reading for C=CC(=O)NCC(=O)N1CCN(C(=O)c2cccc(-c3ccccc3)c2)CC1 [Compound 7b] : 5.3

KI (inactivation) reading for C=CC(=O)NCC(=O)N1CCN(C(=O)C23CC4CC(C2)CC(c2ccccc2)(C4)C3)CC1 [Compound 25d] : 0.69

KI (inactivation) reading for C=CC(=O)NCC(=O)N1CCN(C(=O)c2cccc(Nc3ccccc3)c2)CC1 [Compound 22f] : 31.7

KI (inactivation) reading for C=CC(=O)NCC(=O)N1CCN(C(=O)C23CC4CC(CC(Br)(C4)C2)C3)CC1 [Compound 25c] : 0.65

KI (inactivation) reading for C=CC(=O)NCC(=O)N1CCN(C(=O)c2ccccc2Oc2ccccc2)CC1 [Compound 22b] : 9.1

KI (inactivation) reading for C=CC(=O)NCC(=O)N1CCN(C(=O)c2cccc(-c3cccc(C)c3)c2)CC1 [Compound 21e] : 4.4

KI (inactivation) reading for C=CC(=O)NCC(=O)N1CCN(C(=O)c2ccc(-c3ccccc3C)cc2)CC1 [Compound 21g] : 54.1

KI (inactivation) reading for C=CC(=O)NCC(=O)N1CCN(C(=O)C23CC4CC(CC(C4)C2)C3)CC1 [EB-2-16, reference compound] : 2.43

KI (inactivation) reading for C=CC(=O)NCC(=O)N1CCN(C(=O)c2ccc(Cc3ccccc3)cc2)CC1 [Compound 22g] : 58.1

KI (inactivation) reading for C=CC(=O)NCC(=O)N1CCN(C(=O)C2CCC2)CC1 [Compound 6b] : 20.2

KI (inactivation) reading for C=CC(=O)NCC(=O)N1CCN(C(=O)c2cccc(Cc3ccccc3)c2)CC1 [Compound 22d] : 8.8

----------
- target-desc: tissue transglutaminase (TG2), C-terminal His-tag TG2 (Homo sapiens, UniProt P21980)
- Construct: host or cells: Novagen Rosetta 2 (DE3) E. coli
- experiment-summary: continuous AL5 hydrolysis assay of irreversible TG2 inhibition (kobs vs [I]/α)
- Assay type: biochemical
- experimental-context: supplement, kinetics data and fitting
Classification by KI (inactivation) follows these ranges: low interval (below 3 µM), middle interval (3 µM to below 10 µM), high interval (10 µM or more)

Consider the worked cases shown below.
molecule: C=CC(=O)NCC(=O)N1CCN(C(=O)c2ccccc2Nc2ccccc2)CC1 [Compound 22c]
category: middle interval
--
molecule: C=CC(=O)NCC(=O)N1CCN(C(=O)C23CC4CC(CC(I)(C4)C2)C3)CC1
category: low interval
--
molecule: C=CC(=O)NCC(=O)N1CCN(C(=O)c2cccc(Oc3ccccc3)c2)CC1 [Compound 22e]
category: high interval
--
molecule: C=CC(=O)NCC(=O)N1CCN(C(=O)c2cccc(-c3cccc(C)c3)c2)CC1 [Compound 21e]
category: middle interval
--
molecule: C=CC(=O)NCC(=O)N1CCN(C(=O)C2CCC2)CC1
category: high interval
--
molecule: C=CC(=O)NCC(=O)N1CCN(C(=O)C2CCCC2)CC1
category: high interval
--
molecule: C=CC(=O)NCC(=O)N1CCN(C(=O)C23CC4CC(CC(Br)(C4)C2)C3)CC1 [Compound 25c]
category: low interval
--
molecule: C=CC(=O)NCC(=O)N1CCN(C(=O)c2ccc(-c3ccccc3)cc2)CC1
category: high interval

// next entry
The entry to classify is C=CC(=O)NCC(=O)N1CCN(C(=O)c2ccccc2-c2ccccc2)CC1 ; which class holds it?
middle interval

----------
- target-desc: tissue transglutaminase (TG2), C-terminal His-tag TG2 (Homo sapiens)
- Construct: host or cells: Novagen Rosetta 2 (DE3) E. coli
- Sequence (P21980 1-687): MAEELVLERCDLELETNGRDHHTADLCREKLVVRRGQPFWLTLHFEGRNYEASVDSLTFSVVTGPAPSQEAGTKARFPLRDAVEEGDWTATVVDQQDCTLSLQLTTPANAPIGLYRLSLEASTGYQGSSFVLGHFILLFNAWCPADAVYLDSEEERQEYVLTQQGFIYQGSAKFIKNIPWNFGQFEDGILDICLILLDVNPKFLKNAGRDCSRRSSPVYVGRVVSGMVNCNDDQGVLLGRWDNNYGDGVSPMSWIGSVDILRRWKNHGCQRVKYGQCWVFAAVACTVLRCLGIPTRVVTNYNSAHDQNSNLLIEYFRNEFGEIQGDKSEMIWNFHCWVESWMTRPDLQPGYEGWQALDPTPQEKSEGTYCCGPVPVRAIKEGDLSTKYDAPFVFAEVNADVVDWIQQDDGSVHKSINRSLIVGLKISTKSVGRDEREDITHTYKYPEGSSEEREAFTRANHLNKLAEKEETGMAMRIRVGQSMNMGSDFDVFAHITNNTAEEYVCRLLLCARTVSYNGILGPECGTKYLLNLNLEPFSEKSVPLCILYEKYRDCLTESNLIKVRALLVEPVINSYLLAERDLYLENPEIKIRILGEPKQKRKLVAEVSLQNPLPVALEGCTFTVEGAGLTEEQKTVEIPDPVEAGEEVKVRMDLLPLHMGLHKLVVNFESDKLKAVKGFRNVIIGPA
- experiment-summary: continuous AL5 hydrolysis assay of irreversible TG2 inhibition (kobs vs [I]/α)
- Type: biochemical
- experimental-context: irreversible inhibition, AL5 100 μM, pH 6.9, 25 °C, triplicate
Kindly return Criterion met if reported KI (inactivation) is no lower than 8 µM; return Criterion not met if it is lower.

Consider the worked cases shown below.
compound: C=CC(=O)NCC(=O)N1CCN(C(=O)c2ccc(Nc3ccccc3)cc2)CC1 [Compound 22i]
category: Criterion met
--
compound: C=CC(=O)NCC(=O)N1CCN(C(=O)c2ccc(-c3ccccc3)cc2)CC1 [Compound 7c]
category: Criterion met
--
compound: C=CC(=O)NCC(=O)N1CCN(S(=O)(=O)C23CC4CC(CC(C4)C2)C3)CC1 [Compound 38]
category: Criterion not met

Is KI (inactivation) for C=CC(=O)NCC(=O)N1CCN(C(=O)C2CCCC2)CC1 [Compound 6c] at or above 8 µM?
Criterion met

----------
- target-desc: tissue transglutaminase (TG2), C-terminal His-tag TG2 (Homo sapiens, UniProt P21980)
- Construct: host or cells: Novagen Rosetta 2 (DE3) E. coli
- experiment-summary: continuous AL5 hydrolysis assay of irreversible TG2 inhibition (kobs vs [I]/α)
- Type: biochemical
- experimental-context: supplement, kinetics data and fitting
Kindly return rule met if reported KI (inactivation) is no lower than 20 µM; return rule not met if it is lower.

compound: C=CC(=O)NCC(=O)N1CCN(C(=O)C23CC4CC(CC(C4)C2)C3)CC1 [EB-2-16, reference compound]
target-desc: tissue transglutaminase (TG2), C-terminal His-tag TG2 (Homo sapiens, UniProt P21980)
category: rule not met
--
compound: C=CC(=O)NCC(=O)N1CCN(C(=O)c2ccc(Nc3ccccc3)cc2)CC1 [Compound 22i]
target-desc: tissue transglutaminase (TG2), C-terminal His-tag TG2 (Homo sapiens, UniProt P21980)
category: rule met
--
compound: C=CC(=O)NCC(=O)N1CCN(C(=O)c2ccc(-c3ccccc3C)cc2)CC1 [Compound 21g]
target-desc: tissue transglutaminase (TG2), C-terminal His-tag TG2 (Homo sapiens, UniProt P21980)
category: rule met

Is KI (inactivation) for C=CC(=O)NCC(=O)N1CCN(C(=O)c2ccc(-c3cccc(C)c3)cc2)CC1 [Compound 21h] at or above 20 µM?
rule met

Is KI (inactivation) for C=CC(=O)NCC(=O)N1CCN(C(=O)c2ccc(Cc3ccccc3)cc2)CC1 [Compound 22g] at or above 20 µM?
rule met

Is KI (inactivation) for C=CC(=O)NCC(=O)N1CCN(C(=O)c2cccc(Nc3ccccc3)c2)CC1 [Compound 22f] at or above 20 µM?
rule met

Is KI (inactivation) for C=CC(=O)NCC(=O)N1CCN(C(=O)c2cccc(Cc3ccccc3)c2)CC1 [Compound 22d] at or above 20 µM?
rule not met

Is KI (inactivation) for C=CC(=O)NCC(=O)N1CCN(C(=O)C23CC4CC(CC(F)(C4)C2)C3)CC1 [Compound 25a] at or above 20 µM?
rule not met

Is KI (inactivation) for C=CC(=O)NCC(=O)N1CCN(C(=O)c2ccccc2-c2ccccc2C)CC1 [Compound 21a] at or above 20 µM?
rule not met
